# assayed.system: T1, native human ApoC3 (human, UniProt P02656 21-99, biotinylated in the captured-antigen assays (Tables 6 and 8); sites not stated)
# T1 construct: also called nhuApoC3; native huApoC3
# T1 sequence (P02656 21-99): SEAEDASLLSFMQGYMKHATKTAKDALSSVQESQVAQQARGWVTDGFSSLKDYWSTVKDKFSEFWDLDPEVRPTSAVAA
# protocol.summary: SPR, IgG captured via anti-human Fc, ApoC3 analyte 50 nM
# reported kon; entries follow
Dear colleague, please return just the value in M⁻¹ s⁻¹, with no unit written.

Solved entries (count: 2):
[[record]]
binder = "5E5 WT IgG (antibody, V domains shown, Full-length IgG captured by an anti-human Fc antibody) VH: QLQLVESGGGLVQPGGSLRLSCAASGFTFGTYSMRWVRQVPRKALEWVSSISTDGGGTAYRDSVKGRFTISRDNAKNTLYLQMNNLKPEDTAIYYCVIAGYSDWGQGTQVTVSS VL: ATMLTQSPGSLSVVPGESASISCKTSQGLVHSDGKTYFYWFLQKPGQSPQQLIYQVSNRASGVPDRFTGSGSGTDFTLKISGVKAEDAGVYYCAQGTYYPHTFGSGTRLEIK"
parameter_measured = "kon"
quantitative_result = 164000

[[record]]
binder = "29G02 IgG (antibody, V domains shown) VH: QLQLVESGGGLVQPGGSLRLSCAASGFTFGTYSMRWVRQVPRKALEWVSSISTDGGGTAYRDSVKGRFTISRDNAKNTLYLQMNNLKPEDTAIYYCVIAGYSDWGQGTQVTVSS VL: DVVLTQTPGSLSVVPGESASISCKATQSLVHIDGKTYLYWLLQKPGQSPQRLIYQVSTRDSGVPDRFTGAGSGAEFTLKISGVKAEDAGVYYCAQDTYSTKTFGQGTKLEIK"
parameter_measured = "kon"
quantitative_result = 311000


input: I'd like to know its kon. The binder in question is 29A06 IgG (antibody, V domains shown) VH: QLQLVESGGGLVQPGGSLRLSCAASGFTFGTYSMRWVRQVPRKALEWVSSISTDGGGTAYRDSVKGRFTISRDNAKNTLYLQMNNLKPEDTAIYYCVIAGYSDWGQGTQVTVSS VL: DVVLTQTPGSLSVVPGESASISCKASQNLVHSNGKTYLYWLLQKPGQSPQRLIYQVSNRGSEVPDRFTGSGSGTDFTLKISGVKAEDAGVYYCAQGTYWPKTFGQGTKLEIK
output: 416000

Data origin, for the record: patent US20210347865A1
